target: 5HT1A serotonin receptor (Bos taurus); construct: bovine hippocampus; from tissue; host or cells: bovine hippocampus; assay: Serotonin (5HT1A) binding assay ([3H]-8-OH-DPAT); set-up: species or system bovine; settings: Table VIII; read-out: Ki of reference compounds, 5HT1A
Sequence (F6Q2H9 1-422): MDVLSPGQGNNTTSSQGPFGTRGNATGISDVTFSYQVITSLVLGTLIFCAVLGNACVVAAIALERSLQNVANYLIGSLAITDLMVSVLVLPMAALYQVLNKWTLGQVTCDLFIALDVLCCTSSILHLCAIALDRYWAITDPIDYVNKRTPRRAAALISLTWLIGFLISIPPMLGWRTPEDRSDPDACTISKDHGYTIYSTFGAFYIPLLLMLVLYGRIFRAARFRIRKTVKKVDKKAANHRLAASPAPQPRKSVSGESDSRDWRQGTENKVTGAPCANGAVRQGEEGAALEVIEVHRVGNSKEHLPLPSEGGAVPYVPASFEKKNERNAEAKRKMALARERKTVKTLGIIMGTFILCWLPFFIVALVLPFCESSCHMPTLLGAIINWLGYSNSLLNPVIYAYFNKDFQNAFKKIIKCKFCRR
pKi: −log10 of the molar value.
Listed below: pKi values for each entry.
observed.property: pKi

{"molecule": "CCCN(CCC)C1CCc2cccc(O)c2C1 (centres unmarked) [8-OH-DPAT, reference compound]", "tested.target": "5HT1A serotonin receptor (Bos taurus)", "observed.property": "pKi", "qualifier.symbol": "=", "quantitative.result": 8.85}
{"molecule": "O=C(c1ccc(F)cc1)C1CCN(CCn2c(=O)[nH]c3ccccc3c2=O)CC1 [Ketanserin, reference compound]", "tested.target": "5HT1A serotonin receptor (Bos taurus)", "observed.property": "pKi", "qualifier.symbol": "<", "quantitative.result": 5.00}

* * *

target: 5HT1 serotonin receptor; assay: Serotonin (5HT1) binding assay; settings: read-out: Ki characterizing the 5HT1 assay; assay characterization
pKi: −log10 of the molar value.

{"compound": "NCCc1c[nH]c2ccc(O)cc12 [Serotonin, reference compound]", "pKi": 8.55}

* * *

Listed below: Ki values for each entry.
biological target: D1 dopamine receptor (Rattus norvegicus); construct: rat striatal membranes; experiment: Dopamine D1 binding assay ([3H]SCH 23390); settings: Table III; rat striatal membranes; read-out: D1 receptor binding affinity Ki
Sequence (P18901 whole entry): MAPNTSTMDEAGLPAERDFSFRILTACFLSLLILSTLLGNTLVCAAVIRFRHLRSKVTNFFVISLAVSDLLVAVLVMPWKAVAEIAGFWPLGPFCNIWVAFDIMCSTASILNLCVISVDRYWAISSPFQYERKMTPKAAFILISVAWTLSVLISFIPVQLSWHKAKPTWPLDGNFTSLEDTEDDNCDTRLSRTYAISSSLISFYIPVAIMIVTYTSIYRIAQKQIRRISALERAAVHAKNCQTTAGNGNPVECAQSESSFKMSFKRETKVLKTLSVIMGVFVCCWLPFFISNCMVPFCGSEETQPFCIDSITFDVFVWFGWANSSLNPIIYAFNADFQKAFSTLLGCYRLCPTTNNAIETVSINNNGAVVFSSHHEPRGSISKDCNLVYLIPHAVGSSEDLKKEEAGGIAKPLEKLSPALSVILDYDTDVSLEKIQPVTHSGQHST
observed.property: Ki (µM)

{"compound": "Oc1ccc2c(c1O)CC[C@H]1[C@H]2CCCN1CCc1ccccc1 (single isomer, unassigned) [trans-(-)-9]", "quantitative.result": 3.5}
{"compound": "Oc1cccc2c1CC[C@@H]1[C@@H]2CCCN1CCc1ccccc1 (single isomer, unassigned) [trans-(-)-25]", "quantitative.result": 3.6}
{"compound": "Oc1cccc2c1CC[C@H]1[C@H]2CCCN1CCc1ccccc1 (relative stereo) [trans-25]", "quantitative.result": 5.1}
{"compound": "Oc1ccc2c(c1O)CC[C@@H]1[C@@H]2CCCN1CCc1ccccc1 (relative stereo) [trans-9]", "quantitative.result": 3.6}

* * *

biological target: alpha1-adrenergic receptor; conditions: read-out: α1 receptor binding affinity Ki; Table III; rat forebrain membranes
pKi: −log10 of the molar value.
Listed below: pKi values for each entry.

{"molecule": "Oc1ccc2c(c1O)CC[C@@H]1[C@@H]2CCCN1CCc1ccccc1 (relative stereo) [trans-9]", "tested.target": "alpha1-adrenergic receptor", "pKi": 7.10}
{"molecule": "Oc1cccc2c1CC[C@@H]1[C@@H]2CCCN1CCc1ccccc1 (single isomer, unassigned) [trans-(+)-25]", "tested.target": "alpha1-adrenergic receptor", "pKi": 8.26}
{"molecule": "Oc1cccc2c1CC[C@@H]1[C@@H]2CCCN1CCc1cccs1 (relative stereo) [trans-31]", "tested.target": "alpha1-adrenergic receptor", "pKi": 7.77}
{"molecule": "Oc1ccc2c(c1O)CC[C@@H]1[C@H]2CCCN1CCc1ccccc1 (single isomer, unassigned) [cis-(-)-9]", "tested.target": "alpha1-adrenergic receptor", "pKi": 6.74}
{"molecule": "Oc1ccc2c(c1O)CC[C@@H]1[C@@H]2CCCN1CCc1cccs1 (relative stereo) [trans-33]", "tested.target": "alpha1-adrenergic receptor", "pKi": 6.74}
{"molecule": "Oc1ccc2c(c1O)CC[C@H]1[C@H]2CCCN1CCc1ccccc1 (single isomer, unassigned) [trans-(+)-9]", "tested.target": "alpha1-adrenergic receptor", "pKi": 7.28}
{"molecule": "Oc1cccc2c1CC[C@H]1[C@H]2CCCN1CCc1ccccc1 (relative stereo) [trans-25]", "tested.target": "alpha1-adrenergic receptor", "pKi": 8.35}
